B1: tRNA (parent)
chain: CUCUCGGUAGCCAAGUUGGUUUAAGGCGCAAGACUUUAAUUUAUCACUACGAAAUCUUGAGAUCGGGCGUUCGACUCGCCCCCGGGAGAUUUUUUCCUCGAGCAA

Variants of: B1
Test Name: nonsense suppression (GFP-seq) (ratio to wild type); higher = more function; SUP4oc tRNA, yeast GFP reporter sort-seq
Fewer inactive variants are shown than the library holds.
Outcome Measure: nonsense suppression
Give bare numbers.

1) CUCUCGGUAGCCAAGUUGGUAUAAGGCGCAAGACUUUAAUUUAUCACUACGAAAUCUUGAGAUCGGGCGUUCGACUCCCCCCCGGGAGAUUUUUUCCUCGAGCAA [U21A G78C] | 0.0372
2) CUCCCGGUAGCCAAGUUGGUUUAAGGCGCAAGACUUUAAUUUAUCACUACGAAAUCUUGAGAUCGGGCGUUCGACUCGCCCCCGAGAGAUUUUUUCCUCGAGCAA [U4C G85A] | 0.625
3) CUCUCGGUAGCUAAGUUGGUUUGAGGCGCAAGACUUUAAUUUAUCACUACGAAAUCUUGAGAUCGGGCGUUCGACUCGCCCCCGGGAGAUUUUUUCCUCGAGCAA [C12U A23G] | 0.0776
4) CUCUCGGUAGCCAAGUUGGUUUAAGGCGCAAGACUUUAAUUUAUCACUACGAAAUCUUGAGAUCGGGCGUUCGACUCGCCCCUGGGGGAUUUUUUCCUCGAGCAA [C83U A87G] | 0.0621
5) CUUUCGGUAGCCAAGUUGGUGUAAGGCGCAAGACUUUAAUUUAUCACUACGAAAUCUUGAGAUCGGGCGUUCGACUCGCCCCCGGGAGAUUUUUUCCUCGAGCAA [C3U U21G] | 0.137

List reported nonsense suppression for each of these variants:
1. CACGCGGUAGCCAAGUUGGUUUAAGGCGCAAGACUUUAAUUUAUCACUACGAAAUCUUGAGAUCGGGCGUUCGACUCGCCCCCGGGAGAUUUUUUCCUCGAGCAA [U2A U4G]
2. CUCUCGGUAGCCCAGUUGGUUUAAGGCGCAAGACUUUAAUUUAUCACUACGAAAUCUUGAGAUCGGACGUUCGACUCGCCCCCGGGAGAUUUUUUCCUCGAGCAA [A13C G67A]
3. CUCCCGGUAGCCAAGUUGGUUUAAGGCGCAAGACUUUAAUUUAUCACUACGAAAUCUUGAGAUCGGGCGUUCGACUCGCCCCCGGCAGAUUUUUUCCUCGAGCAA [U4C G86C]

Ans.
0.203
0.0799
0.162
